Source of measurements: ChEMBL document CHEMBL1201862

Would you mind telling me the reported IC50 of each entry?
# Assay System: Large T antigen (Simian virus 40, UniProt P03070);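 also: Confirmatory-stage PubChem screen for compounds that inhibit SV40 T antigen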
# Sequence (P03070 whole entry): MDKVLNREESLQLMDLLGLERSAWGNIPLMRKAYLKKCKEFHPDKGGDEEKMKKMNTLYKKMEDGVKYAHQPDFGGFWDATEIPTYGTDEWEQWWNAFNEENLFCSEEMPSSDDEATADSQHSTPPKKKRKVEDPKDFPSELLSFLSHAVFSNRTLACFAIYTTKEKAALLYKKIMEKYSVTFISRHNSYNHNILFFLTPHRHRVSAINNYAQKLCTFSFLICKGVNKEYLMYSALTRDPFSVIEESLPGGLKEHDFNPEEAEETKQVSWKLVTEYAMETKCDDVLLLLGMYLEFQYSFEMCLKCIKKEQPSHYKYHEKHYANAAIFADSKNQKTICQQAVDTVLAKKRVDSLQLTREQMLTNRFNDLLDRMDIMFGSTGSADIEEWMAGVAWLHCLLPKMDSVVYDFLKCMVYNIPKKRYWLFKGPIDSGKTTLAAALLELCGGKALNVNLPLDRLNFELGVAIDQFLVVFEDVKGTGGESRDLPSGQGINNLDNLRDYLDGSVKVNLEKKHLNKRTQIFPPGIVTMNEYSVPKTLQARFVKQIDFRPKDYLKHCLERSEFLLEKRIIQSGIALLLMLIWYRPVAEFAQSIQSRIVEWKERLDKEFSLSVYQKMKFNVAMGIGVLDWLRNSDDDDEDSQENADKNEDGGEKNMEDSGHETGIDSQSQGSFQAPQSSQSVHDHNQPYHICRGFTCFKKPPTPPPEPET
# Format: functional, Betapolyomavirus macacae
Activity calls are given as the source filed them.

Some compounds with recorded IC50:
stdin: Looking for the measured IC50 of `COc1ccc(Cc2nc3ccccc3n2CC(=O)N/N=C/c2ccc(O)cc2)cc1OC` , can you help?
stdout: > 100 µM (active)

stdin: Field entry: `COc1cc(SC#N)ccc1/N=C/c1c(C)nn(-c2cccc3ccccc23)c1O`
stdout: 14.1 µM (active)

stdin: And the next one, `Nc1ccc(Nc2ccccc2)c(S(=O)(=O)O)c1` ?
stdout: 7.15 µM (active)

stdin: Another: `O=C(CCl)c1cc2c3c(c1)CC(=O)N3CCC2`
stdout: 40.6 µM (active)

Further cases:
stdin: Record request: IC50 value, item `Nc1ccc(O)c(C(=O)O)c1`
stdout: 19.1 µM (active)

----------
# Assay System: Cytochrome P450 1A2 (Homo sapiens)
# Sequence (P05177 whole entry): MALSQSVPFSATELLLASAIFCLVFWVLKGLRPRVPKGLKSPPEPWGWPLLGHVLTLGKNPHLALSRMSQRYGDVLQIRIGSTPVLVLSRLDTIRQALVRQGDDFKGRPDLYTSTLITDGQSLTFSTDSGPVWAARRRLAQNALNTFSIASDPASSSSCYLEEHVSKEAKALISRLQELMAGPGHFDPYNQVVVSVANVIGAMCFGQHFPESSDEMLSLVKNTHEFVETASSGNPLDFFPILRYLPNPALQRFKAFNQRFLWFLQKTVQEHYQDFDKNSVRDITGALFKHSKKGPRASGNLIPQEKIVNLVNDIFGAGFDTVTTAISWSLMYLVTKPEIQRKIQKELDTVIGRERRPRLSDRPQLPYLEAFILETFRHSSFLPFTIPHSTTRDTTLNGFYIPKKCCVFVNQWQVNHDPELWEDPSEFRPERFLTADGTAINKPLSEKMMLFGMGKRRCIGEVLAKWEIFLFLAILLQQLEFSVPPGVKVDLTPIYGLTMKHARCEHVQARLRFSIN
What AC50 was measured for each of the following?

stdin: Report AC50 for `CC(C)n1nnc2ccccc2c1=O` tested on Cytochrome P450 1A2 (Homo sapiens).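 Also: PubChem cytochrome P450 panel assay, CYP1A2 panel member.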
stdout: 11.2 µM (inconclusive)

stdin: What do we get for `Cc1ccc(OCCNC(=O)c2cc(-n3cnnc3)ccc2Cl)cc1C` ?
stdout: 28.2 µM (inconclusive)

stdin: Field entry: `CCOC(=O)c1ccc(Nc2nc(=O)c3cccnc3s2)cc1`
stdout: 14.1 µM (inconclusive)

stdin: What do you get for `O=C1Nc2ccccc2C2=N[C@@H](CN3CCN(c4ccccc4)CC3)CN12` ?
stdout: 20 µM (inconclusive)

stdin: Please answer likewise for `O=C(Nc1cccn(Cc2c(Cl)cccc2Cl)c1=O)c1ccc(Cl)cc1Cl`
stdout: 2.82 µM (inconclusive)

stdin: How about this molecule: OC(Cc1nc2ccccc2[nH]1)c1ccccc1Cl (centres undefined)
stdout: 25.1 µM (inconclusive)

stdin: Further, for O=C(C1CCC(=O)N1Cc1ccccc1Cl)N1CCN(c2ccc(F)cc2)CC1 (centres undefined) ?
stdout: 2.51 µM (inconclusive)

stdin: Repeat with `CC(C)(C)C(=O)NNC(=O)CCCOc1ccc(Cl)cc1Cl`
stdout: 25.1 µM (inconclusive)

Consider the record given below.
stdin: Short answer please: AC50, Cytochrome P450 1A2 (Homo sapiens), entry `c1ccc(Cn2c(CN3CCCC3)nc3ccccc32)cc1`
stdout: 14.1 µM (inconclusive)

----------
# Assay System: UniProtKB P55789
# Assay Notes: ALR-catalysed DTT oxidation blockers – biochemical, H2O2 detection, luminescence, cherry-pick, dose response (AID 493248)
Calls of active or inactive are those of the source.
Measurement Type: AC50

As a guide, the following entries are already answered.
stdin: AC50 for CC(C)CN1C(=O)NC(NS(=O)(=O)c2ccc(N)cc2)(C(F)(F)F)C1=O (stereo not drawn) ?
stdout: 0.73 µM (active)

stdin: Now the same for `Cc1ccc(S(=O)(=O)NN2C(=O)/C(=C/c3cccnc3)SC2=S)cc1`
stdout: 4.96 µM (active)

stdin: Same again, this time with `COc1cc2ccc(=O)oc2cc1O`
stdout: 4.4 µM (active)

stdin: Would you kindly repeat that for `Cc1cc2ncn(C(=O)c3ccc(F)cc3)c2cc1C` ?
stdout: 5.34 µM (active)

Hello, I would appreciate it if you could give AC50 for each entry below.
1. Cc1nc(C)c(CC(=O)N/N=C/c2ccc(O)cc2)c(O)n1
2. O=C(O)CCCc1ccc(N(CCCl)CCCl)cc1
3. COc1cc(/C=N/NC(=O)CNC(=O)c2ccco2)ccc1O

stdout:
1. 2.17 µM (active)
2. < 0.005 µM (active)
3. 3.47 µM (active)

----------
# Assay System: Corticotropin-releasing factor receptor 2/Corticotropin-releasing factor-binding protein (Homo sapiens, UniProt P24387+Q13324)
# Sequence (Q13324 whole entry): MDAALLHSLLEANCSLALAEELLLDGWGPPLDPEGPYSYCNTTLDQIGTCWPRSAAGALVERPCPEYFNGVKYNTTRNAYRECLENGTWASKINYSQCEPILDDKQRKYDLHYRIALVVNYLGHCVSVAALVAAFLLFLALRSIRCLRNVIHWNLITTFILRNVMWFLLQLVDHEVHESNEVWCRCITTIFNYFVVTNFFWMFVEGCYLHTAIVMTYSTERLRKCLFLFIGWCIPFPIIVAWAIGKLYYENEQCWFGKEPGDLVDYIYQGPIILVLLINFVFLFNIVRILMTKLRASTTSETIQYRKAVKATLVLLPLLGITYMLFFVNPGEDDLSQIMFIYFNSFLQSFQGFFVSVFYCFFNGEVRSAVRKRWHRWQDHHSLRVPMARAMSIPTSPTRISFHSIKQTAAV
# Sequence (P24387 whole entry): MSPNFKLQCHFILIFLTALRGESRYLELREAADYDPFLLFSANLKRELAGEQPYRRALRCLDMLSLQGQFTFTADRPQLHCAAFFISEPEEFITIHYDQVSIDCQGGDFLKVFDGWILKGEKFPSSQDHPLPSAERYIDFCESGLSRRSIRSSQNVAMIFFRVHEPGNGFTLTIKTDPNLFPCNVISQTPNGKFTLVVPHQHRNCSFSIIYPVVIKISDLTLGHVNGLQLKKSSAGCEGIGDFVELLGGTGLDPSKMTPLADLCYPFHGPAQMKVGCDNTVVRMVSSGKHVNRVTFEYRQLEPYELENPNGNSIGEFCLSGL
# Assay Notes: Dose Response confirmation of uHTS hits for small molecule antagonists of the CRF-binding protein and CRF-R2 receptor complex.
# Assay type: functional
# Condition Summary: read-out: IC50_Mean
Active and inactive are the calls of the source.
Form entry, call: pick from active, inactive

stdin: For CCCCOC(=O)c1ccc(NC(c2ccc(C)cc2)P(=O)(OC)OC)cc1 (stereo not given) , what call appears in the results of this test?
stdout: inactive

stdin: Next compound up: `CCN(CC(=O)Nc1ccc(OC)cc1)C(=O)c1cc(S(=O)(=O)N2CCOCC2)ccc1N1CCCC1`
stdout: inactive

stdin: What do you have for `FC(F)(F)c1nnc2sc(-c3cccs3)nn12` ?
stdout: inactive

stdin: Moving on to `Cc1nn(-c2ccc([N+](=O)[O-])cc2)c(N)c1-c1ccccc1`
stdout: inactive

stdin: Follow-up item: CSCSC1=C(C#N)C(c2ccccc2Cl)C(C(C)=O)=C(C)N1 (stereo not given)
stdout: inactive

// switching to the query compound
stdin: Dear all, I need the recorded test outcome for `C=CCOc1cccc(CNc2ccc3[nH]c(O)nc3c2)c1` , thank you.
stdout: inactive

----------
# Assay System: Heat shock factor protein 1 (Mus musculus)
# Sequence (P38532 whole entry): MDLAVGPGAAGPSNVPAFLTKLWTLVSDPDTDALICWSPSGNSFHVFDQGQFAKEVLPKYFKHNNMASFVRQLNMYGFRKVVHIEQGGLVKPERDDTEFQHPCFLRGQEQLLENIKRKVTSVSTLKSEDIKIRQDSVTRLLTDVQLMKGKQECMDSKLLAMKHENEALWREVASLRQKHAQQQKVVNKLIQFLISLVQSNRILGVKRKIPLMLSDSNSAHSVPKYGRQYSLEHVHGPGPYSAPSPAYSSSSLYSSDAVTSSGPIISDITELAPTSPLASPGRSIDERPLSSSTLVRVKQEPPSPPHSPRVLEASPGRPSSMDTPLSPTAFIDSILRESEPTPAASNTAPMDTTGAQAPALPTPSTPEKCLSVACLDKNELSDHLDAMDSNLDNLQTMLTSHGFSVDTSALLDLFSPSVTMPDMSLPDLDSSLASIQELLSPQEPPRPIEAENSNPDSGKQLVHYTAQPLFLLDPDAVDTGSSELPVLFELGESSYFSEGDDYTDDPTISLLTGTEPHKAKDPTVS
# Assay Notes: decrease of HSF1-responsive luciferase luminescence – cell-based, NIH3T3, dose retest, confirmation (AID 2382);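 also: NIH3T3 fibroblasts with HSF1-driven luciferase reporter stressed by proteasome inhibitor MG132; luminescence from HSF1-driven luciferase expression after 8 hours of MG132 stress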
# Format: functional
Calls of active or inactive are those of the source.
Record form. Attribute: EC50. Fill in for each entry.

stdin: Which value of EC50 has been reported for CCCC1c2ccc(C)n2CCN1C(=O)Nc1ccc(F)cc1 (stereo not given) in the records?
stdout: > 195 µM (not active)

stdin: Now the compound `COC(=O)CCNc1ccc2c(c1)OCCO2`
stdout: 1.73 µM (active)

stdin: Same read-out for CC(NC(=O)c1ccc2c(c1)OCO2)c1ccccc1 (stereo not given) ?
stdout: > 195 µM (not active)

I would be grateful if you could provide EC50 for each of the following entries.
1. O=C(Nc1ccc(F)c(Cl)c1)C1CCN(S(=O)(=O)c2cccnc2)CC1
2. Cc1cccc2sc(NNC(=O)C3COc4ccccc4O3)nc12 (stereo not given)
3. CCOc1ccccc1Nc1nnc(SCc2nnc(-c3cc(OC)c(OC)c(OC)c3)o2)s1
4. Cc1c(NC(=O)C2CC(c3ccc(F)cc3)=NO2)c(=O)n(-c2ccccc2)n1C (stereo not given)

stdout:
1: > 195 µM (not active); 2: > 195 µM (not active); 3: 21.7 µM (active); 4: > 195 µM (not active)

----------
# System: INS1
# Assay Notes: INS-1E survival protection against cytokine death – cell-based, luminescence, retest, dose response (AID 449756);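 also: cell death triggered by IL-1 beta plus TNF-alpha plus IFN-gamma mixture; protective hits raise ATP signal compared with cytokine alone wells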
# Format: functional
# Condition Summary: Rattus norvegicus
Active and inactive are the calls of the source.
For each record, write down the corresponding AC50.

Recorded results for 5 molecules are shown here.
stdin: Reported AC50 for INS1, given `O=C(N/N=C\c1ccc([N+](=O)[O-])s1)c1cncc(Br)c1` ?
stdout: 7.04 µM (active)

stdin: Another molecule to check: `CCN(CC)CCOc1ccc2c(c1)C(=NNC(=O)c1ccccn1)c1cc(OCCN(CC)CC)ccc1-2`
stdout: 2.97 µM (active)

stdin: # iterate: `CCCCn1cc[n+](C2=C([N-]S(=O)(=O)c3ccc(Br)cc3)C(=O)c3ccccc3C2=O)c1`
stdout: 2.86 µM (active)

stdin: Okay, and CCCCOC(=O)c1ccc(NC(c2ccc(C)cc2)P(=O)(OC)OC)cc1 (stereo unspecified) ?
stdout: 30.8 µM (active)

stdin: Try the molecule `COc1ccc2nc(Nc3nc(O)cc(CSc4nc5ccccc5[nH]4)n3)nc(C)c2c1`
stdout: 20.5 µM (active)

Here's the next entry for you.
stdin: # query: AC50 | item `Cc1nnc(N=c2ssnc2Cl)o1` | system: INS1
stdout: 3.77 µM (active)

----------
# Assay Notes: NIH3T3 cell viability loss – ATP luminescence, mouse fibroblasts, counter-screen, dose response (AID 2010);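 also: cells exposed to compound for about 90 hours before reading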
# Assay type: functional, cell-based
Calls of active or inactive are those of the source.
Task for the reader: assign each of the following compounds its reported EC50.

Would you please look over these solved cases?
stdin: Could you tell me which EC50 is on file for CC1=C(C(=O)N2CCc3ccccc32)C2(CCC(C)CC2)OC1=O (configuration not stated) ?
stdout: > 60 µM (not active)

stdin: Proceed to `CCOc1ccc2nc(O)c(CN(Cc3cccs3)Cc3nnnn3C(C)(C)CC)cc2c1`
stdout: > 30 µM (not active)

Give measured EC50 for every item shown.
1. Cc1cc(C)n(-c2nc(Nc3ccccc3C)nc(-n3nc(C)cc3C)n2)n1
2. Cc1cc(Nc2cccc(F)c2)nc(-c2ccccc2O)n1
3. COc1c(C)cc(Br)cc1C(=O)Nc1ccccc1N1CCN(C(=O)c2ccccc2)CC1

stdout:
["> 60 µM (inconclusive)", "> 60 µM (not active)", "> 60 µM (not active)"]

Hello, I would appreciate it if you could give EC50 for each entry below.
1. COc1ccc(CCN=C(S)NCc2ccc(Cl)c(Cl)c2)cc1OC
2. S=c1sc2c(Cl)ncnc2n1-c1ccccc1

stdout:
> 60 µM (inconclusive)
14.4 µM (active)

----------
# Assay System: FAD-linked sulfhydryl oxidase ALR (Homo sapiens)
# Sequence (P55789 whole entry): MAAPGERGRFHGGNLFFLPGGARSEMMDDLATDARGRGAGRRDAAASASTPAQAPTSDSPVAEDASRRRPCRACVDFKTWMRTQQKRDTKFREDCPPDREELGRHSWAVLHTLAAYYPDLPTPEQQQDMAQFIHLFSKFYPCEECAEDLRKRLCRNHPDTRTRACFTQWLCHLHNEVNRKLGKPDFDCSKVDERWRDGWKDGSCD
# Assay Notes: ALR-catalysed DTT oxidation blockers – biochemical, H2O2 detection, luminescence, cherry-pick, dose response (AID 493248)
Active and inactive are the calls of the source.
Measurement Type: AC50

stdin: Return AC50 measured with FAD-linked sulfhydryl oxidase ALR (Homo sapiens) given this molecule: CN(NC1CC(=O)N(c2ccccc2)C1=O)c1ccccc1 (stereo unspecified)
stdout: 6830 nM (active)

stdin: Check `COc1ccc(Cc2nc3ccccc3n2CC(=O)N/N=C/c2ccc(O)cc2)cc1OC` too.
stdout: 901 nM (active)

stdin: Moving on to the next molecule: `O=[N+]([O-])c1c(O)nc(/C=C\c2ccc(O)c(O)c2)nc1O`
stdout: 1050 nM (active)

Batch: AC50 for all items listed.
1. c1ccc(CN2CCC(=NNc3nc4ccccc4[nH]3)CC2)cc1
2. Cc1[nH]c(C)c(S(=O)(=O)NCc2ccc(N(C)C)cc2)c1C(=O)N1CCCC1
3. COc1cc2c(OC)c3ccoc3nc2cc1O

stdout:
1: 2310 nM (active); 2: 16100 nM (active); 3: 490 nM (active)
